Biological target: Heat shock protein HSP90 (Homo sapiens, UniProt P07900+P08238)
Experiment: Inhibition of geldanamycin-BODIPY binding to full-length HSP90 (unknown origin) by fluorescence polarization based competition assay
Type: protein assay
In this section, each of the compounds is paired with its reported IC50.
value type: IC50

>>> result("COc1ccc(-c2c(C(=O)NC3CCN(Cc4ccc(Cl)cc4Cl)CC3)noc2-c2cc(Cl)c(O)cc2O)cc1")
"0.127 µM"
>>> result("COc1ccc(-c2c(C(=O)NC3CCN(CC4CC4)CC3)noc2-c2cc(Cl)c(O)cc2O)cc1")
"0.039 µM"
>>> result("COc1ccc(-c2c(C(=O)NC3CCN(Cc4ccccc4)CC3)noc2-c2cc(Cl)c(O)cc2O)cc1")
"0.036 µM"
>>> result("COc1ccc(-c2c(/C=C/C(=O)N3CCN(c4ncccn4)CC3)noc2-c2cc(Cl)c(O)cc2O)cc1")
"0.208 µM"
>>> result("O=C(/C=C/c1noc(-c2cc(Cl)c(O)cc2O)c1-c1ccc(O)cc1)N1CCN(c2ncccn2)CC1")
"0.338 µM"
>>> result("COc1ccc(-c2c(C(=O)NC3CCN(CC(C)C)CC3)noc2-c2cc(Cl)c(O)cc2O)cc1")
"0.023 µM"
>>> result("COc1ccc(-c2c(/C=C/C(=O)N3CCN(c4ccccc4)CC3)noc2-c2cc(Cl)c(O)cc2O)cc1")
"0.677 µM"
>>> result("COc1ccc(-c2c(C(=O)NC3CCN(S(C)(=O)=O)CC3)noc2-c2cc(Cl)c(O)cc2O)cc1")
"0.045 µM"

---

Target: [Pyruvate dehydrogenase (acetyl-transferring)] kinase isozyme 1, mitochondrial (Homo sapiens)
Sequence (Q15118 whole entry): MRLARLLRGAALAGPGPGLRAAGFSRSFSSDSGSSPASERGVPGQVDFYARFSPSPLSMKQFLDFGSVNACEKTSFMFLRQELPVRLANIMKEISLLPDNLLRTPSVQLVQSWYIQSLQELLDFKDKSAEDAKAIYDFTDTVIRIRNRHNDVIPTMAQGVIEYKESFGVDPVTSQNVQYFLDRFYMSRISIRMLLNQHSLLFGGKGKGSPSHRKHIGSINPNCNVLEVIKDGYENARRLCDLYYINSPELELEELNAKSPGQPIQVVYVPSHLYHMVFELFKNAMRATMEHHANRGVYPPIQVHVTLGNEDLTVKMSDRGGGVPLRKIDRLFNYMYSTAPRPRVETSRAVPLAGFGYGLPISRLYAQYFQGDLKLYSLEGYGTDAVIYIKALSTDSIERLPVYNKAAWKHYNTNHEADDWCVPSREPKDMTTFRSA
Assay: Inhibition of recombinant PDHK1 (unknown origin) expressed in Escherichia coli incubated for 1 hr by ELISA
pIC50: −log10 of the molar value.
value type: pIC50

>>> quantitative_result("COc1ccc(N2CCN(C(=O)/C=C/c3noc(-c4cc(Cl)c(O)cc4O)c3-c3ccc(O)cc3)CC2)cc1")
6.02
>>> quantitative_result("COc1ccc(-c2c(/C=C/C(=O)N3CCN(c4ccccc4OC)CC3)noc2-c2cc(Cl)c(O)cc2O)cc1")
6.07
>>> quantitative_result("COc1ccc(-c2c(/C=C/C(=O)N3CCN(c4ccc(OC)cc4)CC3)noc2-c2cc(Cl)c(O)cc2O)cc1")
6.25

---

Target: Heat shock protein HSP90 (Homo sapiens, UniProt P07900+P08238)
Assay: Inhibition of geldanamycin-BODIPY binding to full-length HSP90 (unknown origin) by fluorescence polarization based competition assay
Format: protein assay
value type: IC50 (nM)

>>> quantitative_result("COc1ccc(-c2c(/C=C/C(=O)N3CCN(c4ccccc4OC)CC3)noc2-c2cc(Cl)c(O)cc2O)cc1")
596
>>> quantitative_result("O=C(/C=C/c1noc(-c2cc(Cl)c(O)cc2O)c1-c1ccc(O)cc1)N1CCN(c2cccc(C(F)(F)F)c2)CC1")
1859
>>> quantitative_result("O=C(/C=C/c1noc(-c2cc(Cl)c(O)cc2O)c1-c1ccc(O)cc1)N1CCN(c2ccccn2)CC1")
357
